molecular target: mMC4R (Mus musculus); assay: 125I-NDP-MSH competitive binding assay at mMC4R; settings: Table 3; vs Ac-His-DPhe-Arg-Trp-NH2; negative = more potent than control
Sequence (P56450 whole entry): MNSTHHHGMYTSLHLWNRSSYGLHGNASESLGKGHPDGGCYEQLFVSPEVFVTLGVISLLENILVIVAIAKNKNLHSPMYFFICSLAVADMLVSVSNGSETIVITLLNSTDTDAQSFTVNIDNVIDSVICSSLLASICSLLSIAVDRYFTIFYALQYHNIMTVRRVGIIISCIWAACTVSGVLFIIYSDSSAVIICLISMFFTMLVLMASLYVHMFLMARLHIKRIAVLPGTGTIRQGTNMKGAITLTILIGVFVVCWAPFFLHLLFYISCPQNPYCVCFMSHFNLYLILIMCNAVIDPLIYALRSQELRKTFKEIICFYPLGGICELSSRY
Square brackets hold non-standard residues; d marks the D form. Peptide text beside a SMILES is read from it. dPhe(4-I) = N[C@H](Cc1ccc(I)cc1)C(=O)O; d2Nal = N[C@H](Cc1ccc2ccccc2c1)C(=O)O; Bta = N[C@@H](Cc1csc2ccccc12)C(=O)O; Tic = O=C(O)[C@@H]1Cc2ccccc2CN1
readoutName: mMC4R (IC50) Fold Diff.
API doc: respond with a numeric literal and nothing else, no unit.

Examples from the recorded data:
>  <molecule>
CC(=O)N[C@@H](Cc1ccccc1)C(=O)N[C@@H](CCCNC(=N)N)C(=O)N[C@H](Cc1ccc(I)cc1)C(=O)N1Cc2ccccc2C[C@H]1C(N)=O [SKY4-48-23, Ac-Phe-Arg-(pI)DPhe-Tic-NH2] (Ac-FR[dPhe(4-I)][Tic]-NH2)

>  <measuredTarget>
mMC4R (Mus musculus)

>  <mMC4R (IC50) Fold Diff.>
1

$$$$
>  <molecule>
CC(=O)N[C@@H](CCCNC(=N)N)C(=O)N[C@@H](CCCNC(=N)N)C(=O)N[C@H](Cc1ccc(I)cc1)C(=O)N[C@@H](Cc1csc2ccccc12)C(N)=O [SKY4-48-10, Ac-Arg-Arg-(pI)DPhe-3Bal-NH2]

>  <measuredTarget>
mMC4R (Mus musculus)

>  <mMC4R (IC50) Fold Diff.>
1

$$$$
>  <molecule>
CC(=O)N[C@@H](Cc1c[nH]cn1)C(=O)N[C@@H](CCCNC(=N)N)C(=O)N[C@H](Cc1ccc(I)cc1)C(=O)N[C@@H](Cc1csc2ccccc12)C(N)=O [SKY4-48-11, Ac-His-Arg-(pI)DPhe-3Bal-NH2] (Ac-HR[dPhe(4-I)][Bta]-NH2)

>  <measuredTarget>
mMC4R (Mus musculus)

>  <mMC4R (IC50) Fold Diff.>
2

$$$$
>  <molecule>
CC(=O)N[C@H](Cc1ccc2ccccc2c1)C(=O)N[C@@H](CCCNC(=N)N)C(=O)N[C@H](Cc1ccc(I)cc1)C(=O)N1Cc2ccccc2C[C@H]1C(N)=O [SKY6-24-3, Ac-DNal(2′)-Arg-(pI)DPhe-Tic-NH2] (Ac-[d2Nal]R[dPhe(4-I)][Tic]-NH2)

>  <measuredTarget>
mMC4R (Mus musculus)

>  <mMC4R (IC50) Fold Diff.>
-3

$$$$
>  <molecule>
CC(=O)N[C@@H](Cc1ccccc1)C(=O)N[C@@H](CCCNC(=N)N)C(=O)N[C@H](Cc1ccc(I)cc1)C(=O)N[C@@H](Cc1csc2ccccc12)C(N)=O [SKY4-48-15, Ac-Phe-Arg-(pI)DPhe-3Bal-NH2] (Ac-FR[dPhe(4-I)][Bta]-NH2)

>  <measuredTarget>
mMC4R (Mus musculus)

>  <mMC4R (IC50) Fold Diff.>
7

$$$$

Please turn your attention to the following entry.
Incoming: Request the reported mMC4R (IC50) Fold Diff. associated with CC(=O)N[C@@H](CCCNC(=N)N)C(=O)N[C@@H](CCCNC(=N)N)C(=O)N[C@H](Cc1ccc(I)cc1)C(=O)N[C@@H](Cc1ccccc1)C(N)=O [SKY4-48-26, Ac-Arg-Arg-(pI)DPhe-Phe-NH2]
Outgoing: 4
